# experimental-protocol: Chemical stability in 0.1N HCl assessed as drug remaining after 24 hrs
# Type: physicochemical
# condition-set: read-out: Stability
result-type: remaining at 24 h (%)

> print(dat)
                              sample.smiles  numeric.readout
1  Cc1c(/N=C2\O[C@@H](C(F)(F)F)[C@@H]3[C@@H](O)CCN23)ccc(C#N)c1Cl             0.41

###

// pEC50 lookup, one value per entry
# test-target: UniProtKB P15207
# Sequence (P15207 whole entry S389L): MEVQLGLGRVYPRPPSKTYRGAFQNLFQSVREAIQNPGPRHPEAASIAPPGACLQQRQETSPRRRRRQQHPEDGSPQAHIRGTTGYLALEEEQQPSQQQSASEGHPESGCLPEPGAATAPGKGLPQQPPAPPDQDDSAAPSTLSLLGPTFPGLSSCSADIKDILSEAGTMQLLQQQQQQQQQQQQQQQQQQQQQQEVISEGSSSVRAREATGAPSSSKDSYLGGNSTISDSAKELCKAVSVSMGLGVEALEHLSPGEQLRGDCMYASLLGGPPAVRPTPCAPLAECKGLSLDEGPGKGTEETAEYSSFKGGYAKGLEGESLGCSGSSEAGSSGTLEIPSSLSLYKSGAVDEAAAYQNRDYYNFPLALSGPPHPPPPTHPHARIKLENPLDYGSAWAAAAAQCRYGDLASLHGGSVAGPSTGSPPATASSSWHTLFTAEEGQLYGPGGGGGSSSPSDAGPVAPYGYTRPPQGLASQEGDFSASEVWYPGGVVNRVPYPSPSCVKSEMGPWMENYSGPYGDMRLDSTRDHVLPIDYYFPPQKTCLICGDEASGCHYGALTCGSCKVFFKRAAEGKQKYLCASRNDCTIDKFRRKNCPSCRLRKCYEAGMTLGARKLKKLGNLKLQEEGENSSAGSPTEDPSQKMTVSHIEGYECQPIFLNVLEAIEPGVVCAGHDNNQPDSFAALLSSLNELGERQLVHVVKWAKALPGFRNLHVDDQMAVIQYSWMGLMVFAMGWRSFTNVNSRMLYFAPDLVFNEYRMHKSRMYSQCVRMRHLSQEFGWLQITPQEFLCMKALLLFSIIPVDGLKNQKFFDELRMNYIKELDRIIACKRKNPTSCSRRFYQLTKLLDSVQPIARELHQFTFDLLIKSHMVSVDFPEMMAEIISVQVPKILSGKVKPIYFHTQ
# experimental-protocol: Agonist activity at rat androgen receptor expressed in mouse skeletal muscle C2C12 cells assessed as transcriptional activation after 24 hrs by androgen-specific response element driven luciferase reporter gene assay
# Assay type: functional, cell-based
pEC50: −log10 of the molar value.
result-type: pEC50

> print(dat)
                                    compound       test.target  result.type  numeric.readout
 1  Cc1c(/N=C2\N(C)C[C@@H]3[C@H](O)CCN23)ccc(C#N)c1Cl  UniProtKB P15207        pEC50             7.36
 2  Cc1c(/N=C2\OC[C@@H]3[C@H](O)CCN23)ccc(C#N)c1Cl  UniProtKB P15207        pEC50             8.32
 3  Cc1c(N2C[C@@H]3[C@H](O)CCN3C2=O)ccc(C#N)c1Cl  UniProtKB P15207        pEC50             8.19
 4  Cc1c(/N=C2\OC[C@@H]3[C@@H](O)CCN23)ccc(C#N)c1Cl  UniProtKB P15207        pEC50             7.85
 5  Cc1c(/N=C2\O[C@@H](C(F)(F)F)[C@@H]3[C@H](O)CCN23)ccc(C#N)c1Cl  UniProtKB P15207        pEC50             8.85
 6  Cc1c(N2C(NC#N)N3CC[C@H](O)[C@H]3[C@@H]2C)ccc(C#N)c1Cl (stereo partly specified)  UniProtKB P15207        pEC50             5.96
 7  CC[C@H]1[C@@H]2[C@@H](O)CCN2C(=O)N1c1ccc(C#N)c(Cl)c1C  UniProtKB P15207        pEC50             8.74
 8  Cc1c(/N=C2\O[C@H](C(F)(F)F)[C@@H]3[C@H](O)CCN23)ccc(C#N)c1Cl  UniProtKB P15207        pEC50             8.96
 9  Cc1c(/N=C2\OC(C(C)C)[C@@H]3[C@H](O)CCN23)ccc(C#N)c1Cl (single isomer, unassigned)  UniProtKB P15207        pEC50             8.43
10  Cc1c(/N=C2\O[C@H](C(F)(F)F)[C@@H]3[C@@H](O)CCN23)ccc(C#N)c1Cl  UniProtKB P15207        pEC50             7.72
11  Cc1c(/N=C2\O[C@@H](C(F)(F)F)[C@@H]3[C@@H](O)CCN23)ccc(C#N)c1Cl  UniProtKB P15207        pEC50             9.70
